target: PKC α (Homo sapiens, UniProt P17252); construct: purchased CALBIOCHEM; test: PKC enzyme assay (BIOTRAK Protein kinase C enzyme assay system, 32P-ATP phosphorylation of peptide […]); format: biochemical; conditions: Protein Kinase C, Human Recombinant; test substance 1 nM-10 µM; 37°C, 15 minutes; read-out: Inhibition of PKC activity IC50 PKC α
quantity-measured: pIC50
Answers are plain numbers, as −log10 of the molar value.

Guide cases for pIC50, answers given:
CCN(CC)CCCn1cc(C2=C(Nc3ccccc3)C(=O)NC2=O)c2ccccc21
5.90
CN(C)CC1CCn2c(c(C3=C(Nc4ccccc4)C(=O)NC3=O)c3ccccc32)C1 (centres unmarked)
6.59
O=C1NC(=O)C(c2cn(CCCN3CCC(N4CCCCC4)CC3)c3ccccc23)=C1Nc1ccccc1
6.15

Here are 7 compounds. What values of pIC50 were reported for them?
1. Cc1cccc(NC2=C(c3cn(CCCO)c4ccccc34)C(=O)NC2=O)c1
2. O=C1NC(=O)C(c2cn(CC3CCCNC3)c3ccccc23)=C1Nc1ccccc1 (centres unmarked)
3. O=C1NC(=O)C(c2cn(CCCO)c3ccccc23)=C1Nc1cccc(Cl)c1
4. O=C1NC(=O)C(c2cn(CCCN3CCSCC3)c3ccccc23)=C1Nc1ccccc1
5. O=C1NC(=O)C(c2cn(CCCS(=O)(=O)c3ccccc3)c3ccccc23)=C1Nc1ccccc1
6. Cc1cccc(NC2=C(c3c[nH]c4ccccc34)C(=O)NC2=O)c1
7. O=C1NC(=O)C(c2cn(CCN3CCC(O)CC3)c3ccccc23)=C1Nc1ccccc1

1. 5.54
2. 6.32
3. 5.41
4. 6.11
5. 5.41
6. 5.31
7. 5.63

---

molecular target: PKC β II (Homo sapiens); construct: purchased CALBIOCHEM; assay: PKC enzyme assay (BIOTRAK Protein kinase C enzyme assay system, 32P-ATP phosphorylation of peptide […]); format: biochemical; settings: Protein Kinase C, Human Recombinant; test substance 1 nM-10 µM; 37°C, 15 minutes; read-out: Inhibition of PKC activity IC50 PKC β II
Sequence (P05771 other isoform, or with tags, fused parts or gaps): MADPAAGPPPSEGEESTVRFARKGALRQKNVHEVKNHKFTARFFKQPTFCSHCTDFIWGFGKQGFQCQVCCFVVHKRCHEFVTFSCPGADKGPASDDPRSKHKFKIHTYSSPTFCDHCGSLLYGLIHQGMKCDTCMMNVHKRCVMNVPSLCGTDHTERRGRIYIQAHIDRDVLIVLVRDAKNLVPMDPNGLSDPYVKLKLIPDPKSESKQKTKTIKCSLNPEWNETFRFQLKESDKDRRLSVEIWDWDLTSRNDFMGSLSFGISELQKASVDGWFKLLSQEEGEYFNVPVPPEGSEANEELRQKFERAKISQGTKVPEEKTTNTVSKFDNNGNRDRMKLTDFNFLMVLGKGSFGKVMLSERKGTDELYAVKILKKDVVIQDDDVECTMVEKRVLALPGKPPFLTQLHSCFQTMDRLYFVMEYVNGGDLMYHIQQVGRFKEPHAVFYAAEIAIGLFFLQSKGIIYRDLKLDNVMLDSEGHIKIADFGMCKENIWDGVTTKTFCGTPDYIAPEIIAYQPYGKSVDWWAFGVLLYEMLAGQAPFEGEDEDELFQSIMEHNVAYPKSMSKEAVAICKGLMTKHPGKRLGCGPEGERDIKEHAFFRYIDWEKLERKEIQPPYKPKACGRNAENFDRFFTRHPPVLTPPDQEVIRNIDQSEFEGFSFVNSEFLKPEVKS
Note to self: use 1 only for IC50 readings below 20 nM; a reading exactly at 20 nM still gets -1.

Check out these entries, answers already filled in.
NC(=O)N1CCC(Cn2cc(C3=C(Nc4ccccc4)C(=O)NC3=O)c3ccccc32)CC1
-1
O=C1NC(=O)C(c2c3n(c4ccccc24)C[C@H](CO)C3)=C1Nc1ccccc1
1
Cc1cccc(NC2=C(c3cn(CCCO)c4ccccc34)C(=O)NC2=O)c1
-1
Cl.N=C(N)N1CCC(Cn2cc(C3=C(Nc4ccccc4)C(=O)NC3=O)c3ccccc32)CC1 [Example 3-7, hydrochloride]
-1
CCN(C)C[C@H]1Cc2c(C3=C(Nc4ccccc4)C(=O)NC3=O)c3ccccc3n2C1
1

Please let me know if `O=C1NC(=O)C(c2cn(CCCCN3CCC(O)CC3)c3ccccc23)=C1Nc1cccc(Cl)c1` shows IC50 below 20 nM.
-1

Please let me know if O=C1NC(=O)C(c2cn(CC3CCCNC3)c3ccccc23)=C1Nc1ccccc1 (stereo not shown) shows IC50 below 20 nM.
1

Please let me know if `CN(C)C[C@H]1CCc2c(C3=C(Nc4ccccc4)C(=O)NC3=O)c3ccccc3n2C1` shows IC50 below 20 nM.
1

Please let me know if `COc1ccc(NC2=C(c3cn(CCCn4ccnc4)c4ccccc34)C(=O)NC2=O)cc1` shows IC50 below 20 nM.
1

Please let me know if `O=C1NC(=O)C(c2cn(CCN3CCC(O)CC3)c3ccccc23)=C1Nc1ccccc1` shows IC50 below 20 nM.
-1

Please let me know if `CN(C)CCCCn1cc(C2=C(Nc3ccccc3)C(=O)NC2=O)c2ccccc21` shows IC50 below 20 nM.
1

Please let me know if `O=C1NC(=O)C(c2cn(CCCn3ccnc3)c3ccccc23)=C1Nc1cccc(Cl)c1` shows IC50 below 20 nM.
-1

Please let me know if `O=C1NC(=O)C(c2c[nH]c3ccccc23)=C1Nc1cccc(Br)c1` shows IC50 below 20 nM.
-1

Please let me know if `O=C1NC(=O)C(c2cn(CCCCn3ccnc3)c3ccccc23)=C1Nc1cccc(Cl)c1` shows IC50 below 20 nM.
1

Please let me know if `CN(C)CCN(C)CCn1cc(C2=C(Nc3ccccc3)C(=O)NC2=O)c2ccccc21` shows IC50 below 20 nM.
-1

Please let me know if `Cc1cn(CCCn2cc(C3=C(Nc4cccc(Cl)c4)C(=O)NC3=O)c3ccccc32)cn1` shows IC50 below 20 nM.
1
